Provenance of the data: patent US20110217300A1

- Target Under Test: HsEg5 (Homo sapiens)
- Sequence (P52732 18-359 limits assumed): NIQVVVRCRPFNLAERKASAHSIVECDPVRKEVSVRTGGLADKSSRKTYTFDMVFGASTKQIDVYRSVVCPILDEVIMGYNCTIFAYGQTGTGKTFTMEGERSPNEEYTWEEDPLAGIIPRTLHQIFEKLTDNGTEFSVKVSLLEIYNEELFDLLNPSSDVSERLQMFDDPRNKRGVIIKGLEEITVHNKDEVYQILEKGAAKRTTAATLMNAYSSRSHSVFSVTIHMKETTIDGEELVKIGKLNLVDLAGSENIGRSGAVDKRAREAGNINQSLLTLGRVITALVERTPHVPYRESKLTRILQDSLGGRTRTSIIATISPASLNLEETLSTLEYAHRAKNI
- Protocol: Luminescent detection of HsEg5 ATPase activity (Kinase-Glo Plus)
- Assay type: biochemical
pIC50: −log10 of the molar value.
Observed Property: pIC50

Input Smiles	Target Under Test	Observed Property	Value Measured
C#CC[C@H](c1nc2cc(Cl)ccc2c(=O)n1Nc1ccccc1)N(CCCN)C(=O)c1cc2ccccc2s1	HsEg5 (Homo sapiens)	pIC50	6.92
C#CC[C@H](c1nc2cc(Cl)ccc2c(=O)n1Nc1ccccc1)N(CCCN)C(=O)c1c(OC)ccc(F)c1F	HsEg5 (Homo sapiens)	pIC50	7.15
C#CC[C@H](c1nc2cc(Cl)ccc2c(=O)n1Nc1ccccc1)N(CCCN)C(=O)c1ccc(C)cc1	HsEg5 (Homo sapiens)	pIC50	7.05
